Hey, just so you know, these numbers are from ChEMBL document CHEMBL1131307.

IC50: recorded values
Target: Human immunodeficiency virus type 1 reverse transcriptase (Human immunodeficiency virus 1, UniProt Q72547, Y188L)
Assay: Inhibitory activity against HIV-1 Y188L reverse transcriptase.
Returns: string containing the numeric result and its unit.

See these solved cases before continuing.
CCN1c2ncc(CCc3ccccc3)cc2C(=O)N(C)c2ccc(Cl)nc21	960 nM
CCN1c2ncc(C[S+]([O-])c3ccccc3)cc2C(=O)N(C)c2ccc(Cl)nc21 (stereo not given)	2420 nM
CCN1c2ncc(CSc3ccccc3)cc2C(=O)N(C)c2ccc(Cl)nc21	30 nM
CCN1c2ncc(CCc3ccncc3)cc2C(=O)N(C)c2ccc(Cl)nc21	1850 nM

In the following, a different molecule is considered.
Briefly, IC50 measured for CCN1c2ncc(COc3cccc(C(N)=O)c3)cc2C(=O)N(C)c2ccc(Cl)nc21 : 340 nM

====

Target: Human immunodeficiency virus type 1 reverse transcriptase (Human immunodeficiency virus 1, UniProt Q72547, Y181C)
Assay: Inhibitory activity against HIV-1 Y181C reverse transcriptase.
PROPERTY MEASURED: pIC50
# pIC50: negative log10 of molar concentration; output just the value

CCN1c2ncc(CSc3ncccn3)cc2C(=O)N(C)c2ccc(Cl)nc21	7.22
CCN1c2ncc(CS(=O)(=O)c3ccccc3)cc2C(=O)N(C)c2ccc(Cl)nc21	7.22
CCN1c2ncc(NCc3ccccc3)cc2C(=O)N(C)c2ccc(Cl)nc21	6.41

Briefly, pIC50 measured for CCN1c2ncc(COc3ccncc3)cc2C(=O)N(C)c2ccc(F)nc21 : 6.72

Briefly, pIC50 measured for CCN1c2ncc(COc3ccncc3)cc2C(=O)N(C)c2ccc(Cl)nc21 : 6.59

Briefly, pIC50 measured for CCN1c2ncc(CNc3cccc(N)c3)cc2C(=O)N(C)c2ccc(Cl)nc21 : 7.00

Briefly, pIC50 measured for CCN1c2ncc(COc3ccc4[nH]ccc4c3)cc2C(=O)N(C)c2ccc(Cl)nc21 : 7.05

====

Target: Human immunodeficiency virus type 1 reverse transcriptase (Human immunodeficiency virus 1, UniProt Q72547, Y181C)
Experiment: Inhibitory activity against HIV-1 Y181C reverse transcriptase.
IC50: recorded values
Field: numeric (nM). Do not append units.

See these solved cases before continuing.
CCN1c2ncc(CCc3ccccc3)cc2C(=O)N(C)c2ccc(Cl)nc21	150
CCN1c2ncc(COc3cccc(OC)c3)cc2C(=O)N(C)c2ccc(Cl)nc21	280

In the following, a different compound is considered.
Briefly, IC50 measured for CCN1c2ncc(COc3cccc(N)c3)cc2C(=O)N(C)c2ccc(Cl)nc21 : 100
